Would you kindly list TGI for each of these compounds?
# Test system: OVCAR-8 ovarian
# Assay Overview: NCI tumour cell line growth inhibition, 48 h
Only the number, expressed in µM, is required.

In: // fetch TGI; item: `CC1(C)N=c2cc3c(cc2N1c1ccc(Cl)cc1)=Nc1ccccc1N3c1ccc(Cl)cc1` ; system: OVCAR-8 ovarian
Out: 51.9

In: // fetch TGI; item: FC(F)(F)c1cc(NC(=S)N2c3ccccc3-n3cccc3C2c2cccnc2)cc(C(F)(F)F)c1 (stereo not given) ; system: OVCAR-8 ovarian
Out: 15.3

In: // fetch TGI; item: `O=[N+]([O-])c1cc(I)cc(/C=N/NS(=O)(=O)c2ccc(Cl)cc2)c1O` ; system: OVCAR-8 ovarian
Out: 37.6

* * *

# System: BT-549 breast
# Assay Overview: NCI tumour cell line growth inhibition, 48 h; in the data active means GI50 below about 0.43 µM; inactive means the rest
A correct response names exactly one class from true (1) for active, false (0) for inactive

In: What call does the record list for `CC(=O)Nc1ccc(OC(C)=O)cc1` ?
Out: true (1)

In: What call does the record list for `O=C(CCCC(=O)N/N=C/c1cc(Cl)ccc1O)N/N=C\c1cc(Cl)ccc1O` ?
Out: false (0)

In: What call does the record list for `CC(C)=Cc1cccc2[nH]c(O)c(N=Nc3ccc(S(N)(=O)=O)cc3)c12` ?
Out: false (0)

In: What call does the record list for `O=C(c1ccc2ccccc2c1)c1c(C(F)(F)F)n([O-])c2cc(C(F)(F)F)ccc2[n+]1=O` ?
Out: false (0)

In: What call does the record list for `Cc1ccc(-c2nc(/C=N/Nc3cc(C)nc4ccc(Br)cc34)c(C)o2)cc1` ?
Out: false (0)

In: What call does the record list for `C#CCOC(=O)/C=C/C(=O)Oc1ccc2c(C)cc(=O)oc2c1` ?
Out: false (0)

In: What call does the record list for `O=[N+]([O-])c1ccc(N=Nc2c(Cl)cc(O)cc2Cl)cc1` ?
Out: false (0)

In: What call does the record list for `O=c1oc2ccc(Cl)cc2c(=O)n1-c1ccc(F)cc1F` ?
Out: false (0)

In: What call does the record list for `O=c1cc(-c2ccccc2)oc2c1ccc1ccccc12` ?
Out: false (0)

In: What call does the record list for `CC1=C2[C@@H](CC1)[C@]1(C)O[C@@](C(C)C)(C[C@H]1OC(=O)CO)[C@H]2OC(=O)CCCc1ccccc1` ?
Out: false (0)

In: What call does the record list for `O=C(Nc1cccc(C(F)(F)F)c1)c1ccc(NC2=C(Cl)C(=O)N(Cc3ccccc3)C2=O)cc1` ?
Out: false (0)

In: What call does the record list for `COc1cc(NS(C)(=O)=O)ccc1Cc1c2ccccc2nc2ccccc12` ?
Out: true (1)

In: What call does the record list for COc1ccc(C2=NN(C(C)=O)C(c3ccc(Oc4ccnc5cc(Cl)ccc45)c(OC)c3)C2)cc1 (stereo not given) ?
Out: false (0)

In: What call does the record list for COc1ccc2nc3c(cc2c1)C(=O)CC(c1ccccc1)C3 (stereo not given) ?
Out: false (0)

In: What call does the record list for `O=C1/C(=C/c2ccc(F)cc2)CN(C(=O)C(Cl)Cl)C/C1=C\c1ccc(F)cc1` ?
Out: true (1)

In: What call does the record list for `O=C(Nc1ccccc1Cl)c1ccc(NC2=C(Cl)C(=O)N(C3CCCCC3)C2=O)cc1` ?
Out: false (0)

In: What call does the record list for `CCN(CC)CCn1c(=O)c2cc(OC)c(OC)cc2c2ccc3cc4c(cc3c21)OCO4` ?
Out: false (0)

In: What call does the record list for `O=C(Nc1n[nH]c2nc(-c3ccc(O)cc3)c(Br)cc12)C1CC1` ?
Out: false (0)

In: What call does the record list for `Fc1ccc(-c2ncn(CCCN3CCOCC3)c2-c2ccncc2)cc1` ?
Out: false (0)

In: What call does the record list for `CCCS(=O)(=O)Nc1cccc(Nc2ncnc3cc(NC(=O)CCl)ccc23)c1Cl` ?
Out: false (0)
